# Test system: Birdseye Speedwell
# method-summary: pre-emergence herbicide test
# Type: in vivo
# condition-context: pre-emergence, 0.25 lb/A; read-out: % plant inhibition
Label label 0 if inhibition at 280.212 g/ha falls below 70%; label label 1 in every other case.

Challenge: Item Cc1c(-c2cc(C(=O)OCc3ccco3)c(Cl)cc2F)nn(C)c1C(F)(F)F [Compound 57] with inhibition at 280.212 g/ha of 70% or above?
Response given: label 0

Challenge: Item COCCOC(=O)c1cc(-c2nn(C)c(C(F)(F)F)c2C)c(F)cc1Cl [Compound 56] with inhibition at 280.212 g/ha of 70% or above?
Response given: label 1

Challenge: Item COC(=O)CSCc1cc(-c2nn(C)c(C(F)(F)F)c2C)c(F)cc1Cl [Compound 31] with inhibition at 280.212 g/ha of 70% or above?
Response given: label 0

Challenge: Item CCOC(=O)COC(=O)c1cc(-c2nn(C)c(C(F)(F)F)c2C)c(F)cc1Cl [Compound 17] with inhibition at 280.212 g/ha of 70% or above?
Response given: label 1

Challenge: Item CCC(CC)COC(=O)c1cc(-c2nn(C)c(C(F)(F)F)c2C)c(F)cc1Cl [Compound 46] with inhibition at 280.212 g/ha of 70% or above?
Response given: label 1

Challenge: Item Cc1c(-c2cc(C(=O)NC(C)C)c(Cl)cc2F)nn(C)c1C(F)(F)F [Compound 22] with inhibition at 280.212 g/ha of 70% or above?
Response given: label 1

Challenge: Item CSCc1cc(-c2nn(C)c(C(F)(F)F)c2C)c(F)cc1Cl [Compound 27] with inhibition at 280.212 g/ha of 70% or above?
Response given: label 0

Challenge: Item Cc1c(-c2cc(C(=O)OCSC#N)c(Cl)cc2F)nn(C)c1C(F)(F)F [Compound 50] with inhibition at 280.212 g/ha of 70% or above?
Response given: label 0
